# Measured on: Acetylcholinesterase (Homo sapiens)
pIC50: −log10 of the molar value.
If the reported pIC50 equals or exceeds 8, assign true (1). If not, assign false (0).

1) O=C(CCC1CCN(Cc2ccccc2)CC1)c1ccc2c(c1)CNCCO2: false (0)
2) O=C(CCC1CCN(Cc2ccccc2)CC1)c1cc2c3c(c1)CC(=O)N3CCC2: true (1)
3) COc1ccc(CN2CCC(CCC(=O)c3cc4c5c(ccn5C(=O)CC4)c3)CC2)cc1: false (0)
4) O=C(CCC1CCN(Cc2ccccc2)CC1)c1ccc2c(c1)CCCN2: false (0)
5) O=C(CCC1CCN(Cc2ccccc2)CC1)c1cc2c3c(c1)CCN3C(=O)CCC2: false (0)
6) O=C(CCC1CCN(Cc2ccc(O)cc2)CC1)c1cc2c3c(ccn3C(=O)CC2)c1: true (1)
7) O=C(CCC1CCN(Cc2ccccc2Cl)CC1)c1cc2c3c(ccn3C(=O)CC2)c1: true (1)
8) O=C(CCC1CCN(Cc2ccccc2)CC1)c1ccc2c(c1)NC(c1ccccc1)N2 (stereo not drawn): false (0)
9) O=C(CCC1CCN(Cc2cccc(Cl)c2)CC1)c1cc2c3c(ccn3C(=O)CC2)c1: true (1)
10) O=C(CCC1CCN(Cc2ccccc2O)CC1)c1cc2c3c(ccn3C(=O)CC2)c1: true (1)
11) O=C(CCC1CCN(Cc2ccccc2[N+](=O)[O-])CC1)c1cc2c3c(ccn3C(=O)CC2)c1: false (0)
12) O=C(CCC1CCN(Cc2cccc(F)c2)CC1)c1cc2c3c(ccn3C(=O)CC2)c1: true (1)
13) c1ccc(CN2CCC(CCc3noc4cc(C5CCCCC5)ccc34)CC2)cc1: true (1)
14) O=C(CCC1CCN(Cc2cccc([N+](=O)[O-])c2)CC1)c1cc2c3c(ccn3C(=O)CC2)c1: true (1)
15) O=C(CCC1CCN(Cc2ccccc2)CC1)c1ccc2c(c1)CCN2: false (0)
16) O=C(CCC1CCN(Cc2ccccc2F)CC1)c1cc2c3c(ccn3C(=O)CC2)c1: true (1)

---

// values below are reported pIC50
# Measured on: Acetylcholinesterase (Homo sapiens, UniProt P22303)
# Sequence (P22303 whole entry): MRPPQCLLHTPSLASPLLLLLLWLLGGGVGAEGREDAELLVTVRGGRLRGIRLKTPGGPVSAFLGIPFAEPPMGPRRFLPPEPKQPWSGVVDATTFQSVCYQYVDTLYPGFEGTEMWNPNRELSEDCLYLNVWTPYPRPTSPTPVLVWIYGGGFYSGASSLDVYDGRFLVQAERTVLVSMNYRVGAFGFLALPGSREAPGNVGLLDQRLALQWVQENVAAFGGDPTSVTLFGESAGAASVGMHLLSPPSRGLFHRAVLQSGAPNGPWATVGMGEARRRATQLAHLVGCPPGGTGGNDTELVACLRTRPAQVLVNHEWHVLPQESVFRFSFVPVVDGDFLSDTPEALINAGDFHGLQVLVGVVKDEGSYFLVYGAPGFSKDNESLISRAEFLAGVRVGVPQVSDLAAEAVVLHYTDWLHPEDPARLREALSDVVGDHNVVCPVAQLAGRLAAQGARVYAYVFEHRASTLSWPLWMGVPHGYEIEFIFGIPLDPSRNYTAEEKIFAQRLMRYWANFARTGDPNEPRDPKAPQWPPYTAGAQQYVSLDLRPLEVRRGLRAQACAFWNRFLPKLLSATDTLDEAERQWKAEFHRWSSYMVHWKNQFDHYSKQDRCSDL
pIC50: −log10 of the molar value.
Endpoint name: pIC50

1. O=C(CCC1CCN(Cc2ccccc2)CC1)c1ccc2c(c1)CCNCC2: 7.60
2. O=C(CCC1CCN(Cc2ccccc2)CC1)c1cc2c3c(c1)CCC(=O)N3CCC2: 7.80
3. O=C(CCC1CCN(Cc2ccccc2)CC1)c1ccc2c(c1)CNCCC2: 7.64
4. O=C(CCC1CCN(Cc2ccc(Cl)cc2)CC1)c1cc2c3c(ccn3C(=O)CC2)c1: 6.82
5. O=C(CCC1CCN(Cc2ccc(F)cc2)CC1)c1cc2c3c(ccn3C(=O)CC2)c1: 8.34
6. COc1ccccc1CN1CCC(CCC(=O)c2cc3c4c(ccn4C(=O)CC3)c2)CC1: 7.19
7. CS(=O)(=O)Nc1ccc2c(CCC3CCN(Cc4ccccc4)CC3)noc2c1: 7.85
8. O=C(CCC1CCN(Cc2ccc([N+](=O)[O-])cc2)CC1)c1cc2c3c(ccn3C(=O)CC2)c1: 7.37
9. O=C(CCC1CCN(Cc2ccccc2)CC1)c1ccc2c(c1)NCCC2: 6.78
10. COc1cccc(CN2CCC(CCC(=O)c3cc4c5c(ccn5C(=O)CC4)c3)CC2)c1: 6.90

Cited source for all entries: ChEMBL document CHEMBL1649350
